# Test system: strain 21
# assay_notes: MIC determination, broth microdilution (CLSI)
# Assay type: cell-based
What MIC was measured for each of the following?
Number only, in µg/mL; omit the unit.

Data request: May I ask what MIC has been recorded for "C[C@H]1[C@H](NC(=O)/C(=N\OCCOc2cnc(C(=N)N)cn2)c2csc(N)n2)C(=O)N1S(=O)(=O)O" ?
Data returned: 0.25

Data request: May I ask what MIC has been recorded for "CC1(C)[C@H](NC(=O)/C(=N\OCCOc2ccc(C(=N)N)nn2)c2csc(N)n2)C(=O)N1OS(=O)(=O)O" ?
Data returned: 0.5

Data request: May I ask what MIC has been recorded for "C[C@H]1[C@H](NC(=O)/C(=N\OCCOc2ccc(C(=N)N)cc2Cl)c2csc(N)n2)C(=O)N1S(=O)(=O)O" ?
Data returned: 1

Data request: May I ask what MIC has been recorded for "CC1(C)[C@H](NC(=O)/C(=N\OCCOc2ccc(C(=N)N[C@H]3CCNC3)cc2)c2csc(N)n2)C(=O)N1OS(=O)(=O)O" ?
Data returned: 0.25

Data request: May I ask what MIC has been recorded for "C[C@H]1[C@H](NC(=O)/C(=N\OCCNc2ccc(C(=N)N)cc2)c2csc(N)n2)C(=O)N1S(=O)(=O)O" ?
Data returned: 4

Data request: May I ask what MIC has been recorded for "C[C@H]1[C@H](NC(=O)/C(=N\OCCOc2ccc(C(=N)N)cc2F)c2csc(N)n2)C(=O)N1S(=O)(=O)O" ?
Data returned: 1

---

# Test system: strain 20
# assay_notes: MIC determination, broth microdilution (CLSI)
# Format: cell-based
property: MIC (µg/mL)
Number only, in µg/mL; omit the unit.

Data request: May I ask what MIC has been recorded for Cc1cc(OCCO/N=C(\C(=O)N[C@@H]2C(=O)N(S(=O)(=O)O)[C@H]2C)c2csc(N)n2)ccc1C(=N)N [Example 14] ?
Data returned: 0.5

Data request: May I ask what MIC has been recorded for CC1(C)[C@H](NC(=O)/C(=N\OCCOc2cc(C(=N)N)ccn2)c2csc(N)n2)C(=O)N1OS(=O)(=O)O [Example 22] ?
Data returned: 1

Data request: May I ask what MIC has been recorded for C[C@H]1[C@H](NC(=O)/C(=N\OCC(C)(C)Oc2ccc(C(=N)N)cc2)c2csc(N)n2)C(=O)N1S(=O)(=O)O [Example 17] ?
Data returned: 2

Data request: May I ask what MIC has been recorded for C[C@@H]1[C@H](NC(=O)/C(=N\OCCOc2ccc(C(=N)N)cc2)c2csc(N)n2)C(=O)N1S(=O)(=O)O [Example 11] ?
Data returned: 0.25

Data request: May I ask what MIC has been recorded for CC1(C)[C@H](NC(=O)/C(=N\OCCOc2ccnc(C(=N)N)c2)c2csc(N)n2)C(=O)N1OS(=O)(=O)O [Example 15] ?
Data returned: 0.5

Data request: May I ask what MIC has been recorded for CC1(C)[C@H](NC(=O)/C(=N\OCCOc2ccc(C(=N)N)nn2)c2csc(N)n2)C(=O)N1OS(=O)(=O)O [Example 29] ?
Data returned: 0.5

Data request: May I ask what MIC has been recorded for C[C@H]1[C@H](NC(=O)/C(=N\OCCOc2ccc(C(=N)N)cc2F)c2csc(N)n2)C(=O)N1S(=O)(=O)O [Example 19] ?
Data returned: 1

---

# System: M. catarrhalis ICB489
# assay_notes: MIC determination, broth microdilution (CLSI)
# Type: cell-based
# test_conditions: Moraxella catarrhalis, ICB489, strain 12
property: MIC (µg/mL)
Number only, in µg/mL; omit the unit.

Data request: May I ask what MIC has been recorded for "CC1(C)[C@H](NC(=O)/C(=N\OCCOc2ccc(C(=N)N[C@H]3CCNC3)cc2)c2csc(N)n2)C(=O)N1OS(=O)(=O)O" ?
Data returned: 0.25

Data request: May I ask what MIC has been recorded for N=C(N)c1ccc(OCCO/N=C(\C(=O)NC2C(=O)N(OS(=O)(=O)O)C23CCCC3)c2csc(N)n2)cc1 (stereo not drawn) ?
Data returned: 1

Data request: May I ask what MIC has been recorded for "C[C@H]1[C@H](NC(=O)/C(=N\OCCOc2ccc(C(=N)N)cc2Cl)c2csc(N)n2)C(=O)N1S(=O)(=O)O" ?
Data returned: 0.5

Data request: May I ask what MIC has been recorded for "C[C@H]1[C@H](NC(=O)/C(=N\OCCCOc2ccc(C(=N)N)cc2)c2csc(N)n2)C(=O)N1S(=O)(=O)O" ?
Data returned: 0.5

Data request: May I ask what MIC has been recorded for "CC1(C)[C@H](NC(=O)/C(=N\OCCOc2cnc(C(=N)N)c(O)c2)c2csc(N)n2)C(=O)N1OS(=O)(=O)O" ?
Data returned: 0.125

Data request: May I ask what MIC has been recorded for "C[C@H]1[C@H](NC(=O)/C(=N\OCCNc2ccc(C(=N)N)cc2)c2csc(N)n2)C(=O)N1S(=O)(=O)O" ?
Data returned: 0.5

---

# System: P. aeruginosa PAO1
# assay_notes: MIC determination, broth microdilution (CLSI)
# Format: cell-based
# test_conditions: Pseudomonas aeruginosa, PAO1, strain 6
Please respond with Criterion met when measured MIC is strictly beneath 4 µg/mL, and with Criterion not met in all other cases.

Data request: Regarding C[C@H]1[C@H](NC(=O)/C(=N\OCCOc2ccc(C(=N)N)cc2F)c2csc(N)n2)C(=O)N1S(=O)(=O)O [Example 19] , kindly confirm whether its MIC is beneath 4 µg/mL.
Data returned: Criterion not met

Data request: Regarding C[C@H]1[C@H](NC(=O)/C(=N\OCCOc2ccc(C(=N)N)nc2)c2csc(N)n2)C(=O)N1S(=O)(=O)O [Example 3] , kindly confirm whether its MIC is beneath 4 µg/mL.
Data returned: Criterion met

Data request: Regarding C[C@H]1[C@H](NC(=O)/C(=N\OCCNc2ccc(C(=N)N)cc2)c2csc(N)n2)C(=O)N1S(=O)(=O)O [Example 8] , kindly confirm whether its MIC is beneath 4 µg/mL.
Data returned: Criterion not met

Data request: Regarding CC1(C)[C@H](NC(=O)/C(=N\OCCOc2ccc(C(=N)N)cc2)c2csc(N)n2)C(=O)N1OCS(=O)(=O)O [Example 90] , kindly confirm whether its MIC is beneath 4 µg/mL.
Data returned: Criterion not met

Data request: Regarding C[C@H]1[C@H](NC(=O)/C(=N\OCc2ccc(C(=N)N)cc2)c2csc(N)n2)C(=O)N1S(=O)(=O)O [Example 55] , kindly confirm whether its MIC is beneath 4 µg/mL.
Data returned: Criterion not met

Data request: Regarding CC1(C)[C@H](NC(=O)/C(=N\O[C@@H](COc2ccc(C(=N)N[C@H]3CCNC3)cc2)C(=O)O)c2csc(N)n2)C(=O)N1OS(=O)(=O)O [Example 93] , kindly confirm whether its MIC is beneath 4 µg/mL.
Data returned: Criterion met

Data request: Regarding CC1(C)[C@H](NC(=O)/C(=N\OC(COc2ccc(C(=N)N)cc2)CC(=O)O)c2csc(N)n2)C(=O)N1OS(=O)(=O)O (mixture of isomers) [Example 46] , kindly confirm whether its MIC is beneath 4 µg/mL.
Data returned: Criterion not met

Data request: Regarding CC1(C)[C@H](NC(=O)/C(=N\OCCOc2ccc(C3=NCCN3)cc2)c2csc(N)n2)C(=O)N1OS(=O)(=O)O [Example 25] , kindly confirm whether its MIC is beneath 4 µg/mL.
Data returned: Criterion met

Data request: Regarding C[C@H]1[C@H](NC(=O)/C(=N\OCCOc2ccc(C(=N)NN)cc2)c2csc(N)n2)C(=O)N1S(=O)(=O)O [Example 64] , kindly confirm whether its MIC is beneath 4 µg/mL.
Data returned: Criterion not met

---

What MIC was measured for each of the following?
# Tested on: E. cloacae 34654
# assay_notes: MIC determination, broth microdilution (CLSI)
# Format: cell-based
# test_conditions: Enterobacter cloacae, 34654, strain 3
Number only, in µg/mL; omit the unit.

Data request: May I ask what MIC has been recorded for "CC1(C)[C@H](NC(=O)/C(=N\OCCOc2ccc(C3=NCCN3)cc2)c2csc(N)n2)C(=O)N1OS(=O)(=O)O" ?
Data returned: 0.25

Data request: May I ask what MIC has been recorded for "CC1(C)[C@H](NC(=O)/C(=N\OCCOc2ccc(C(=N)NC3CCNCC3)cc2)c2csc(N)n2)C(=O)N1OS(=O)(=O)O" ?
Data returned: 0.5

Data request: May I ask what MIC has been recorded for CC1(C)[C@H](NC(=O)/C(=N\O[C@@H](COc2ccc(C(=N)NCC3CCCN3)cc2)C(=O)O)c2csc(N)n2)C(=O)N1OS(=O)(=O)O (some centres unmarked) ?
Data returned: 0.125

Data request: May I ask what MIC has been recorded for "C[C@H]1[C@H](NC(=O)/C(=N\OCCOc2ccc(C(=N)NCCO)cc2)c2csc(N)n2)C(=O)N1S(=O)(=O)O" ?
Data returned: 0.25

Data request: May I ask what MIC has been recorded for "C[C@H]1[C@H](NC(=O)/C(=N\OCCOc2ccc(C(=N)NNC=O)cc2)c2csc(N)n2)C(=O)N1S(=O)(=O)O" ?
Data returned: 0.5

Data request: May I ask what MIC has been recorded for CC1(C)[C@H](NC(=O)/C(=N\OCCOc2ccc(C3=NCC(N)CN3)cc2)c2csc(N)n2)C(=O)N1OS(=O)(=O)O (some centres unmarked) ?
Data returned: 0.5

Data request: May I ask what MIC has been recorded for "Cc1sc(C(=N)N)nc1OCCO/N=C(\C(=O)N[C@@H]1C(=O)N(OS(=O)(=O)O)C1(C)C)c1csc(N)n1" ?
Data returned: 4

Data request: May I ask what MIC has been recorded for "C[C@H]1[C@H](NC(=O)/C(=N\OCCOc2ccc(C(=N)N)cc2)c2nc(N)sc2Cl)C(=O)N1S(=O)(=O)O" ?
Data returned: 2

Data request: May I ask what MIC has been recorded for "CC1(C)[C@H](NC(=O)/C(=N\OCCOc2ccc(C(=N)NCCNC=N)cc2)c2csc(N)n2)C(=O)N1OS(=O)(=O)O" ?
Data returned: 0.25

Data request: May I ask what MIC has been recorded for "C[C@H]1[C@H](NC(=O)/C(=N\OCCOc2cc(C(=N)N)nn2C)c2csc(N)n2)C(=O)N1S(=O)(=O)O" ?
Data returned: 4

Data request: May I ask what MIC has been recorded for "C[C@H]1[C@H](NC(=O)/C(=N\OCCOc2ccc(C(=N)N)cc2Cl)c2csc(N)n2)C(=O)N1S(=O)(=O)O" ?
Data returned: 2

Data request: May I ask what MIC has been recorded for "C[C@H]1[C@H](NC(=O)/C(=N\OCC(C)(C)Oc2ccc(C(=N)N)cc2)c2csc(N)n2)C(=O)N1S(=O)(=O)O" ?
Data returned: 2

Data request: May I ask what MIC has been recorded for "C[C@H]1[C@H](NC(=O)/C(=N\OCCOc2ccc(C(=N)N)cc2Br)c2csc(N)n2)C(=O)N1S(=O)(=O)O" ?
Data returned: 2

Data request: May I ask what MIC has been recorded for "CC1(C)[C@H](NC(=O)/C(=N\OCCOc2cc(C(=N)N)ccn2)c2csc(N)n2)C(=O)N1OS(=O)(=O)O" ?
Data returned: 1

Data request: May I ask what MIC has been recorded for "C[C@H]1[C@H](NC(=O)/C(=N\OCCOc2ccc(C(=N)N)cc2)c2csc(N)n2)C(=O)N1OCS(=O)(=O)O" ?
Data returned: 0.5

Data request: May I ask what MIC has been recorded for "CC1(C)[C@H](NC(=O)/C(=N\O[C@@H](COc2ccc(C(=N)NCCNc3ncccn3)cc2)C(=O)O)c2csc(N)n2)C(=O)N1OS(=O)(=O)O" ?
Data returned: 1

Data request: May I ask what MIC has been recorded for CC1(C)[C@H](NC(=O)/C(=N\O[C@@H](COc2ccc(C(=N)NCC3CCCCN3)cc2)C(=O)O)c2csc(N)n2)C(=O)N1OS(=O)(=O)O (some centres unmarked) ?
Data returned: 0.25

Data request: May I ask what MIC has been recorded for "CC1(C)[C@H](NC(=O)/C(=N\OCCOc2ccc(C(=N)N[C@H]3CCNC3)cc2)c2csc(N)n2)C(=O)N1OS(=O)(=O)O" ?
Data returned: 0.5

Data request: May I ask what MIC has been recorded for "C[C@H]1[C@H](NC(=O)/C(=N\OCCOc2ccc(C(=N)N)c(O)c2)c2csc(N)n2)C(=O)N1S(=O)(=O)O" ?
Data returned: 0.25

Data request: May I ask what MIC has been recorded for "CC(C)(N)CNC(=N)c1ccc(OC[C@H](O/N=C(\C(=O)N[C@@H]2C(=O)N(OS(=O)(=O)O)C2(C)C)c2csc(N)n2)C(=O)O)cc1" ?
Data returned: 0.125

Data request: May I ask what MIC has been recorded for "C[C@H]1[C@H](NC(=O)/C(=N\OC(C)(C)COc2ccc(C(=N)N)cc2)c2csc(N)n2)C(=O)N1S(=O)(=O)O" ?
Data returned: 2

Data request: May I ask what MIC has been recorded for "C[C@H]1[C@H](NC(=O)/C(=N\OCCOc2cccc(C(=N)N)c2)c2csc(N)n2)C(=O)N1S(=O)(=O)O" ?
Data returned: 0.5

Data request: May I ask what MIC has been recorded for "Cc1cc(OCCO/N=C(\C(=O)N[C@@H]2C(=O)N(OS(=O)(=O)O)C2(C)C)c2csc(N)n2)ccc1C(=N)N" ?
Data returned: 1

Data request: May I ask what MIC has been recorded for "CC1(C)[C@H](NC(=O)/C(=N\OCCOc2cnc(C(=N)N)c(O)c2)c2csc(N)n2)C(=O)N1OS(=O)(=O)O" ?
Data returned: 0.5

Data request: May I ask what MIC has been recorded for "C[C@H]1[C@H](NC(=O)/C(=N\OCCSc2ccc(C(=N)N)cc2)c2csc(N)n2)C(=O)N1S(=O)(=O)O" ?
Data returned: 0.125
